tested on: Staphylococcus aureus S13E; format: cell-based
PARAMETER MEASURED: MIC (µg/mL)
I only need the number, in µg/mL, no unit after it.

| MOLECULE | PARAMETER MEASURED | UNIT SYMBOL | NUMERIC VALUE |
| --- | --- | --- | --- |
| CCCCCCCCCCN[C@@]1(C)C[C@H](O[C@H]2[C@H](Oc3c4cc5cc3Oc3ccc(cc3Cl)[C@@H](O[C@H]3C[C@](C)(N)[C@@H](O)[C@H](C)O3)[C@@H]3NC(=O)[C@H](NC(=O)[C@@H]5NC(=O)[C@H](CC(N)=O)NC(=O)[C@H](NC(=O)[C@@H](CC(C)C)NC)[C@H](O)c5ccc(c(Cl)c5)O4)c4ccc(O)c(c4)-c4c(O)cc(O)cc4[C@@H](C(=O)O)NC3=O)O[C@H](CO)[C@@H](O)[C@@H]2O)O[C@@H](C)[C@@H]1O | MIC | µg/mL | 1 |

Now for another entry.
Find the recorded MIC belonging to CNC(CC(C)C)C(=O)NC1C(=O)NC(CC(N)=O)C(=O)NC2C(=O)NC3C(=O)NC(C(=O)NC(C(=O)O)c4cc(O)cc(O)c4-c4cc3ccc4O)C(OC3CC(C)(NCc4ccccc4)C(O)C(C)O3)c3ccc(cc3)Oc3cc2cc(c3O)Oc2ccc(cc2Cl)C1O (stereo not drawn) and report it.
1

----------
system: Enterococcus faecalis 2041; assay: MIC, standard agar-dilution assay; type: cell-based
Known MIC of a selection of compounds

| COMPOUND | PARAMETER MEASURED | RESULT |
| --- | --- | --- |
| CNC(CC(C)C)C(=O)NC1C(=O)NC(CC(N)=O)C(=O)NC2C(=O)NC3C(=O)NC(C(=O)NC(C(=O)O)c4cc(O)cc(O)c4-c4cc3ccc4O)C(OC3CC(C)(NCc4ccccc4)C(O)C(C)O3)c3ccc(cc3)Oc3cc2cc(c3OC2OC(CO)C(O)C(O)C2O)Oc2ccc(cc2Cl)C1O (centres unmarked) [Compound 70] | MIC | 2 µg/mL |

Now for another entry.
Find the recorded MIC belonging to CCCCCN(C)[C@H](CC(C)C)C(=O)N[C@H]1C(=O)N[C@@H](CC(N)=O)C(=O)N[C@H]2C(=O)N[C@H]3C(=O)N[C@H](C(=O)N[C@H](C(=O)O)c4cc(O)cc(O)c4-c4cc3ccc4O)[C@H](O[C@H]3C[C@](C)(N)[C@@H](O)[C@H](C)O3)c3ccc(c(Cl)c3)Oc3cc2cc(c3O[C@@H]2O[C@H](CO)[C@@H](O)[C@H](O)[C@H]2O[C@H]2C[C@](C)(N)[C@@H](O)[C@H](C)O2)Oc2ccc(cc2Cl)[C@H]1O [Compound 35] and report it.
.5 µg/mL

----------
test system: Enterococcus faecalis 2041; assay: MIC, standard agar-dilution assay; format: cell-based
PARAMETER MEASURED: MIC (µg/mL)
I only need the number, in µg/mL, no unit after it.

Find the recorded MIC belonging to CCCCCCCCOc1ccc(CNC2(C)CC(OC3C(Oc4c5cc6cc4Oc4ccc(cc4Cl)C(OC4CC(C)(N)C(O)C(C)O4)C4NC(=O)C(NC(=O)C6NC(=O)C(CC(N)=O)NC(=O)C(NC(=O)C(CC(C)C)NC)C(O)c6ccc(c(Cl)c6)O5)c5ccc(O)c(c5)-c5c(O)cc(O)cc5C(C(=O)O)NC4=O)OC(CO)C(O)C3O)OC(C)C2O)cc1 (stereo not shown) and report it.
8

----------
system: Enterococcus faecium X66; assay: MIC, standard agar-dilution assay; assay type: cell-based
Known MIC of a selection of compounds

Recorded results for 2 compounds are shown here.
| COMPOUND | MIC |
| --- | --- |
| CNC(CC(C)C)C(=O)NC1C(=O)NC(CC(N)=O)C(=O)NC2C(=O)NC3C(=O)NC(C(=O)NC(C(=O)O)c4cc(O)cc(O)c4-c4cc3ccc4O)C(OC3CC(C)(NCc4ccccc4)C(O)C(C)O3)c3ccc(c(Cl)c3)Oc3cc2cc(c3OC2OC(CO)C(O)C(O)C2O)Oc2ccc(cc2Cl)C1O (stereo not drawn) | 1 µg/mL |
| CNC(CC(C)C)C(=O)NC1C(=O)NC(CC(N)=O)C(=O)NC2C(=O)NC3C(=O)NC(C(=O)NC(C(=O)O)c4cc(O)cc(O)c4-c4cc3ccc4O)C(OC3CC(C)(NCc4ccccc4)C(O)C(C)O3)c3ccc(c(Cl)c3)Oc3cc2cc(c3O)Oc2ccc(cc2Cl)C1O (stereo not drawn) | 1 µg/mL |

Find the recorded MIC belonging to `CN[C@H](CC(C)C)C(=O)N[C@H]1C(=O)N[C@@H](CC(N)=O)C(=O)N[C@H]2C(=O)N[C@H]3C(=O)N[C@H](C(=O)N[C@H](C(=O)O)c4cc(O)cc(O)c4-c4cc3ccc4O)[C@H](O[C@H]3C[C@](C)(N)[C@@H](O)[C@H](C)O3)c3ccc(cc3)Oc3cc2cc(c3O[C@@H]2O[C@H](CO)[C@@H](O)[C@H](O)[C@H]2O[C@H]2C[C@](C)(NCc3ccccc3)[C@@H](O)[C@H](C)O2)Oc2ccc(cc2Cl)[C@H]1O` and report it.
.25 µg/mL

----------
Test system: Streptococcus pyogenes C203
Assay: MIC, standard agar-dilution assay
Assay type: cell-based
Method: The formula I compounds have in vitro and in vivo activity against Gram-positive pathogenic bacteria. The MIC's were determined using a standard agar-dilution assays.
PARAMETER MEASURED: MIC

Recorded results for 2 compounds are shown here.
| COMPOUND | RESULT |
| --- | --- |
| CN[C@H](CC(C)C)C(=O)N[C@H]1C(=O)N[C@@H](CC(N)=O)C(=O)N[C@H]2C(=O)N[C@H]3C(=O)N[C@H](C(=O)N[C@H](C(=O)O)c4cc(O)cc(O)c4-c4cc3ccc4O)[C@H](O[C@H]3C[C@](C)(NCc4ccccc4)[C@@H](O)[C@H](C)O3)c3ccc(cc3)Oc3cc2cc(c3O[C@@H]2O[C@H](CO)[C@@H](O)[C@H](O)[C@H]2O[C@H]2C[C@](C)(NCc3ccccc3)[C@@H](O)[C@H](C)O2)Oc2ccc(cc2Cl)[C@H]1O [Compound 11] | .25 µg/mL |
| CCCCCN(C)[C@H](CC(C)C)C(=O)N[C@H]1C(=O)N[C@@H](CC(N)=O)C(=O)N[C@H]2C(=O)N[C@H]3C(=O)N[C@H](C(=O)N[C@H](C(=O)O)c4cc(O)cc(O)c4-c4cc3ccc4O)[C@H](O[C@H]3C[C@](C)(N)[C@@H](O)[C@H](C)O3)c3ccc(cc3)Oc3cc2cc(c3O[C@@H]2O[C@H](CO)[C@@H](O)[C@H](O)[C@H]2O[C@H]2C[C@](C)(N)[C@@H](O)[C@H](C)O2)Oc2ccc(cc2Cl)[C@H]1O [Compound 6] | .125 µg/mL |

Find the recorded MIC belonging to CNC(CC(C)C)C(=O)NC1C(=O)NC(CC(N)=O)C(=O)NC2C(=O)NC3C(=O)NC(C(=O)NC(C(=O)O)c4cc(O)cc(O)c4-c4cc3ccc4O)C(OC3CC(C)(N)C(O)C(C)O3)c3ccc(c(Cl)c3)Oc3cc2cc(c3OC2OC(CO)C(O)C(O)C2OC2CC(C)(NCc3ccc(Br)cc3)C(O)C(C)O2)Oc2ccc(cc2Cl)C1O (stereo not drawn) [Compound 58] and report it.
.125 µg/mL

----------
test system: Klebsiella pneumoniae X68; experiment: MIC, standard agar-dilution assay; format: cell-based
Known MIC of a selection of compounds

Recorded results for 4 compounds are shown here.
| COMPOUND | MIC |
| --- | --- |
| CC(C)C[C@H](C(=O)N[C@H]1C(=O)N[C@@H](CC(N)=O)C(=O)N[C@H]2C(=O)N[C@H]3C(=O)N[C@H](C(=O)N[C@H](C(=O)O)c4cc(O)cc(O)c4-c4cc3ccc4O)[C@H](O[C@H]3C[C@](C)(NCc4ccccc4)[C@@H](O)[C@H](C)O3)c3ccc(cc3)Oc3cc2cc(c3O[C@@H]2O[C@H](CO)[C@@H](O)[C@H](O)[C@H]2O[C@H]2C[C@](C)(NCc3ccccc3)[C@@H](O)[C@H](C)O2)Oc2ccc(cc2Cl)[C@H]1O)N(C)Cc1ccccc1 [Compound 12] | > 128 µg/mL |
| CCCCCCC(=O)N[C@@]1(C)C[C@H](O[C@H]2[C@H](Oc3c4cc5cc3Oc3ccc(cc3Cl)[C@@H](O)[C@@H](NC(=O)[C@@H](CC(C)C)NC)C(=O)N[C@@H](CC(N)=O)C(=O)N[C@H]5C(=O)N[C@H]3C(=O)N[C@H](C(=O)N[C@H](C(=O)O)c5cc(O)cc(O)c5-c5cc3ccc5O)[C@H](O[C@H]3C[C@](C)(N)[C@@H](O)[C@H](C)O3)c3ccc(cc3)O4)O[C@H](CO)[C@@H](O)[C@@H]2O)O[C@@H](C)[C@@H]1O [Compound 27] | > 128 µg/mL |
| CNC(CC(C)C)C(=O)NC1C(=O)NC(CC(N)=O)C(=O)NC2C(=O)NC3C(=O)NC(C(=O)NC(C(=O)O)c4cc(O)cc(O)c4-c4cc3ccc4O)C(OC3CC(C)(N)C(O)C(C)O3)c3ccc(c(Cl)c3)Oc3cc2cc(c3OC2OC(CO)C(O)C(O)C2OC2CC(C)(NCc3ccc(Br)cc3)C(O)C(C)O2)Oc2ccc(cc2Cl)C1O (centres unmarked) [Compound 58] | > 128 µg/mL |
| CN[C@H](CC(C)C)C(=O)N[C@H]1C(=O)N[C@@H](CC(N)=O)C(=O)N[C@H]2C(=O)N[C@H]3C(=O)N[C@H](C(=O)N[C@H](C(=O)O)c4cc(O)cc(O)c4-c4cc3ccc4O)[C@H](O[C@H]3C[C@](C)(NCc4ccc(Cl)cc4)[C@@H](O)[C@H](C)O3)c3ccc(cc3)Oc3cc2cc(c3O[C@@H]2O[C@H](CO)[C@@H](O)[C@H](O)[C@H]2O[C@H]2C[C@](C)(N)[C@@H](O)[C@H](C)O2)Oc2ccc(cc2Cl)[C@H]1O [Compound 21] | > 128 µg/mL |

Now for another entry.
Find the recorded MIC belonging to CCCCCCCCCCN[C@@]1(C)C[C@H](O[C@H]2[C@H](Oc3c4cc5cc3Oc3ccc(cc3Cl)[C@@H](O[C@H]3C[C@](C)(N)[C@@H](O)[C@H](C)O3)[C@@H]3NC(=O)[C@H](NC(=O)[C@@H]5NC(=O)[C@H](CC(N)=O)NC(=O)[C@H](NC(=O)[C@@H](CC(C)C)NC)[C@H](O)c5ccc(c(Cl)c5)O4)c4ccc(O)c(c4)-c4c(O)cc(O)cc4[C@@H](C(=O)O)NC3=O)O[C@H](CO)[C@@H](O)[C@@H]2O)O[C@@H](C)[C@@H]1O [Compound 42] and report it.
> 128 µg/mL
